Target: UniProt:O95630
Sequence (O95630 whole entry): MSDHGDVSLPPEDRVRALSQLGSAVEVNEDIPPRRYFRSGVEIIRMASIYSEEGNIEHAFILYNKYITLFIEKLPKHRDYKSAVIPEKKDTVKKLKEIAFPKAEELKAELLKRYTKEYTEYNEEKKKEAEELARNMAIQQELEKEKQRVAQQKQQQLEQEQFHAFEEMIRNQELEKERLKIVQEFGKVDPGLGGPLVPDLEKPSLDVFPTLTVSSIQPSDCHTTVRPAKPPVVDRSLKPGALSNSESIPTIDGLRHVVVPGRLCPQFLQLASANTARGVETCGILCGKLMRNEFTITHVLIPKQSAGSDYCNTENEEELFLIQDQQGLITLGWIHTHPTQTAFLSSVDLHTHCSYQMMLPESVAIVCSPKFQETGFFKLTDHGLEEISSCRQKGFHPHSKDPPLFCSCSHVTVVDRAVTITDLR
# IC50 values compiled below
Quantity measured: IC50 (µM)

>>> df
                                 mol_smiles  value_unit  operator_symbol  measured_value
0  O=C(NCc1ccc2c(c1)OCO2)c1cnc2c(SSc3cccc4cc(C(=O)NCc5ccc6c(c5)OCO6)cnc34)cccc2c1          µM                <             0.2
1  O=C(NCc1ccc(C(F)(F)F)cc1)c1cnc2c(SSc3cccc4cc(C(=O)NCc5ccc(C(F)(F)F)cc5)cnc34)cccc2c1          µM                =             3.5
2  O=C(NCc1ccccn1)c1cnc2c(SSc3cccc4cc(C(=O)NCc5ccccn5)cnc34)cccc2c1          µM                =              17
3  O=C(NCCN1CCOCC1)c1cnc2c(SSc3cccc4cc(C(=O)NCCN5CCOCC5)cnc34)cccc2c1          µM                =              26
4  O=C(Nc1ncco1)c1cnc2c(SSc3cccc4cc(C(=O)Nc5ncco5)cnc34)cccc2c1          µM                =               5
5  CNC(=O)c1cnc2c(SSc3cccc4cc(C(=O)NC)cnc34)cccc2c1          µM                =             4.1
6         CSc1cccc2cc(C(=O)NCCc3nccs3)cnc12          µM                >             100
7  COC(=O)CNC(=O)c1cnc2c(SSc3cccc4cc(C(=O)NCC(=O)OC)cnc34)cccc2c1          µM                =             2.2
8  O=C(NCc1ccccc1)c1cnc2c(SSc3cccc4cc(C(=O)NCc5ccccc5)cnc34)cccc2c1          µM                >              10
9          O=C(NCCc1nccs1)c1cnc2c(O)cccc2c1          µM                >             100

----------
target: 26S proteasome non-ATPase regulatory subunit 14 (Homo sapiens); experiment: Inhibition of 26S proteasome regulatory subunit RPN11 deubiquitinating activity in human erythrocytes using Ub4-pepOG protein substrate preincubated for 1 hr followed by substrate addition measured after 80 mins by fluorescence polarization assay
Sequence (O00487 whole entry): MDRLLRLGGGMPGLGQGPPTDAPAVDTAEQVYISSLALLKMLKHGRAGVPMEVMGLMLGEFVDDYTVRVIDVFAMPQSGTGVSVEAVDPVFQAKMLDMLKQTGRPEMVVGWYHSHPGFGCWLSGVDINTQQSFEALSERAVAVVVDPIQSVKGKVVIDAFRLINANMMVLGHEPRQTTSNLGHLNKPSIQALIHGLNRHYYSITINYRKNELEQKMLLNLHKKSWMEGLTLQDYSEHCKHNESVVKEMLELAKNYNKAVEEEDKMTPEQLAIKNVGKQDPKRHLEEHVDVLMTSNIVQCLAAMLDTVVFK
pIC50: −log10 of the molar value.
pIC50 listing for selected compounds.
Quantity measured: pIC50

>>> print(df.to_string())
                                    compound  operator_symbol  measured_value
 0  O=C(NCc1cccs1)c1ccc2cccc(SSc3cccc4ccc(C(=O)NCc5cccs5)nc34)c2n1                <            4.00
 1  O=C(NCc1ccco1)c1ccnc2c(SSc3cccc4c(C(=O)NCc5ccco5)ccnc34)cccc12                =            5.66
 2  COC(=O)c1cnc2c(SSc3cccc4cc(C(=O)OC)cnc34)cccc2c1                =            6.05
 3                        Cc1ccc(S)c2ncccc12                =            5.60
 4  COC(=O)c1ccnc2c(SSc3cccc4c(C(=O)OC)ccnc34)cccc12                =            6.00
 5         CSc1cccc2cc(C(=O)NCCc3nccs3)cnc12                <            4.40
 6  O=C(NCc1ccccc1)c1ccc2cccc(SSc3cccc4ccc(C(=O)NCc5ccccc5)nc34)c2n1                <            4.00
 7  O=C(NCc1ccc(C(F)(F)F)cc1)c1cnc2c(SSc3cccc4cc(C(=O)NCc5ccc(C(F)(F)F)cc5)cnc34)cccc2c1                =            6.10
 8  O=C(NCc1cccs1)c1ccnc2c(SSc3cccc4c(C(=O)NCc5cccs5)ccnc34)cccc12                =            6.00
 9            Oc1cccc2cccnc12 [OXYQUINOLINE]                <            4.00
10  O=C(NCc1cccnc1)c1cnc2c(SSc3cccc4cc(C(=O)NCc5cccnc5)cnc34)cccc2c1                =            5.49

----------
Biological target: Protein deacetylase HDAC6 (Homo sapiens, UniProt Q9UBN7)
Sequence (Q9UBN7 whole entry): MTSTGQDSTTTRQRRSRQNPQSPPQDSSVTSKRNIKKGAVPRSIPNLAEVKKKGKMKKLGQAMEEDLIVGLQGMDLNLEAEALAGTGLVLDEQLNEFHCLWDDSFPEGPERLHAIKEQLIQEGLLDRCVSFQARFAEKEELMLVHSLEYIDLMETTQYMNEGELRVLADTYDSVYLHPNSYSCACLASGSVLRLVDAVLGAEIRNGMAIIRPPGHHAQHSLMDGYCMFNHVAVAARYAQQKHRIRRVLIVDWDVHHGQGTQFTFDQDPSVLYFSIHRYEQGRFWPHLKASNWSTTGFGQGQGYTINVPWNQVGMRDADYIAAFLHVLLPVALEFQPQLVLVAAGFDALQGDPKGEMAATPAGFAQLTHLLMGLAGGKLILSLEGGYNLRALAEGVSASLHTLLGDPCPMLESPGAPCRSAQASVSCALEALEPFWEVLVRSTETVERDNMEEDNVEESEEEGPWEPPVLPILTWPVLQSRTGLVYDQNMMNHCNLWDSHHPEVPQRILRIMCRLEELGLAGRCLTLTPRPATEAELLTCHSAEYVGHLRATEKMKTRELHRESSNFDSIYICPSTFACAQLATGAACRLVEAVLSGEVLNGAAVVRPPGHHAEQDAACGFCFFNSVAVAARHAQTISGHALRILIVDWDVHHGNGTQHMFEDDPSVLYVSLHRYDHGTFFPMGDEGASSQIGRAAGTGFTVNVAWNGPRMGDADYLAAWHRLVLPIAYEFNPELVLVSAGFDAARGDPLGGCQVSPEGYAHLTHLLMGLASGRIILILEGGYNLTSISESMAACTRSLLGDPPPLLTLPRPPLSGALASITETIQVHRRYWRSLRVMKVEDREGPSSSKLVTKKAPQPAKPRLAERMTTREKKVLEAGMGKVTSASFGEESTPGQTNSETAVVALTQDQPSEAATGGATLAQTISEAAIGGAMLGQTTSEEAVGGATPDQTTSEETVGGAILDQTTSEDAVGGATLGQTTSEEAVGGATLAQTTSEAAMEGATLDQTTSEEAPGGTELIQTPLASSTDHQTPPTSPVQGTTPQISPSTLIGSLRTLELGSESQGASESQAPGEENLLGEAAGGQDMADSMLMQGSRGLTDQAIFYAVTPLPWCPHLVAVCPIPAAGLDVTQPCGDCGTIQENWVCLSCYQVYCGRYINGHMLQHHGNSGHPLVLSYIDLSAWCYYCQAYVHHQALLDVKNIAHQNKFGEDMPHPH
Assay: Inhibition of full length recombinant human N-terminal GST-tagged HDAC6 expressed in baculovirus expression system using substrate 3 preincubated for 5 mins followed by substrate addition measured after 30 mins by fluorescence assay
pIC50: −log10 of the molar value.
// reported pIC50 per item
Quantity measured: pIC50

           mol_smiles  measured_value
0     Sc1cccc2cccnc12          < 3.70
1  Cc1ccc(S)c2ncccc12          < 3.70
2  Cc1ccnc2c(S)cccc12          < 3.70
3  Cc1cc(S)c2ncccc2c1          < 4.30
4  Cc1cnc2c(S)cccc2c1          < 3.70

----------
molecular target: Carbonic anhydrase 2 (Homo sapiens, UniProt P00918)
Quantity measured: IC50

In [3]: df
Out[3]:
           mol_smiles  quantity_measured  measured_value
0  Cc1cnc2c(S)cccc2c1               IC50         > 40 µM
